# Tested on: PPARg:RXRa 270nM:90nM, anti-RXR (NR concentration 270 nM, RXRa partner concentration 90 nM)
# procedure-text: PBM binding z-score (relative to random genomic background probes); higher = stronger binding; sequences stand for … in GC…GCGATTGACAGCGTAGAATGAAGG
endpoint-name: PBM binding z-score
Keep it simple and answer with nothing but the number.

Example results:
seq_string=ATCTCTAGGTAACCAAGTTCGGTGAATGCCGAAC endpoint_name="PBM binding z-score" observed_result=0.74
seq_string=CCTTACGGGTCACACCAGGTTATAGCATCGGAGT endpoint_name="PBM binding z-score" observed_result=4.95
seq_string=GGAACGATGGCAAGTTGATAGCAGAGTTTGATGG endpoint_name="PBM binding z-score" observed_result=-0.873
seq_string=ACTAGCGGGCCAAGGGTCACTCAAGATTAGTCCG endpoint_name="PBM binding z-score" observed_result=7.39
seq_string=CAAACTAGGTCAAGAGGACAAAGTCCGCTTCCCG endpoint_name="PBM binding z-score" observed_result=6.69

Look up and report measured PBM binding z-score for this entry: GGAACGAGGGCATACGAGTTGATAGCATGGCGAT
0.666

* * *

PBM binding z-score overview
# Tested on: LXRb:RXRa (NR concentration 270 nM, RXRa partner concentration 90 nM)
# procedure-text: PBM binding z-score (relative to random genomic background probes); higher = stronger binding; sequences stand for … in GC…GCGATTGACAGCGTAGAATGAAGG
Keep it simple and answer with nothing but the number.

seq_string=GCTGCTAGGTCAACTAATGGTCAGCTAAAGCTCG observed_result=2.02
seq_string=CCTGCTAGGTCATGTTCAGCTAATCTACAGTATG observed_result=1.65

Next up:
Look up and report measured PBM binding z-score for this entry: AGTCAAAGTTCACTAGGTAAGGTAAGATTCAGCT
3

* * *

# Test system: RARb homodimer (NR concentration 270 nM)
# procedure-text: PBM binding z-score (relative to random genomic background probes); higher = stronger binding; sequences stand for … in GC…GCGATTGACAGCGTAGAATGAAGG
Outcome label depends on PBM binding z-score relative to 1: at/above gives Yes, below gives No.

Illustrative cases are given below, each with its answer.
seq_string=CCTTACGGGTCACGAGGTAATAGCACGACGAGCG qualitative_label=Yes
seq_string=AATACAGGCTCATCGTAGGCCAGAGTACGCACAG qualitative_label=No
seq_string=TCTAGTAGGTTAGTCGGGGCATTCAGCCAACATA qualitative_label=Yes
seq_string=TCTAGTTGGTAAAAGGTCACACACTCGAAATGCG qualitative_label=Yes
seq_string=CCAGACAGGTGAAAGGTTACTCAGTCTGGTACGC qualitative_label=Yes

Hello, I need to know if TCGAGTACGTTACCAATGGGGCATTCAGCTTTCT has measured PBM binding z-score not below 1. Thanks!
No

Hello, I need to know if CCAGACAGGTGAGAAGGTAACTCAACCTCGATTA has measured PBM binding z-score not below 1. Thanks!
No

Hello, I need to know if TCGAGTAGGTTAGGGGCATTCACAATGGCGTCGA has measured PBM binding z-score not below 1. Thanks!
No

* * *

# System: VDR homodimer (NR concentration 270 nM)
# procedure-text: PBM binding z-score (relative to random genomic background probes); higher = stronger binding; sequences stand for … in GC…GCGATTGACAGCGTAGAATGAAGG
Would you mind sorting the entries by PBM binding z-score according to these classes? band 1: < 0.5; band 2: ≥ 0.5 and < 2; band 3: ≥ 2

seq_string=AGAACGAGGGCACGCCGAGTTGATAGCAGAGTAG qualitative_label="band 2"
seq_string=TCTTGTAGATCAGTAGGTTAAGAAAGCTGGCCAA qualitative_label="band 1"
seq_string=GGAACGAGGGCATTCGAGTTGATAGTATGGCGAT qualitative_label="band 3"

Which bin should I file CCTTACGGGTCACTGACCGGTTATAGCATTTGGA under?
band 2

Which bin should I file CCTTACGGGTTACGAGGTTATAGCACGACGAGCG under?
band 1

Which bin should I file TCATATAGGTAAACAGGTGAAATTCCGTAAGTTA under?
band 2

Which bin should I file CTACAAAGGTGAACAAGGTCGTTGATTACTATTC under?
band 3

Which bin should I file TCAGCCAGGTGAAGGTAACTCAGGTACGCAGTCG under?
band 1

Which bin should I file GCGACTAGGGCAAAGCAGGTTACCATAAGGTTGG under?
band 1

Which bin should I file AGTCAAAGTTCATCTAGGTAACGGAAGATATGCT under?
band 3

Which bin should I file ATCTCTAGGTTAAGTTCAGTGAAAGATCGATAGA under?
band 3

Which bin should I file CCTAGTTGGTCAGGAGGTCACCCACCGGATATGA under?
band 3

Which bin should I file CCTGCTAGGTCAATGGTCAGCTATAGCAGCTCGC under?
band 1

Which bin should I file TCTACTTGGTCAAAGGTCACACACTCGAAATGCG under?
band 3

Which bin should I file CCTATTAGTTGACCTTAAGGGCAACCGAAGCTCG under?
band 3

Which bin should I file TCTAGTTGGTCACGGAGGTCACTCACGACGGGTA under?
band 3
